Data provenance: paper PMC11013424

experiment: RP-TLC determination of lipophilicity (RM0, logPTLC); settings: from RM0 by calibration logPTLC = 1.2838 RM0 + 0.2138
measured.endpoint: LogPTLC
One number for each entry.

Dear colleague, could you please provide LogPTLC for the molecules listed below?
1. C#CCN1c2ccc3ccccc3c2Sc2cc3ccccc3nc21 [Compound 17]
2. CC(=O)Nc1ccccc1 [Standard I, acetanilide, reference compound]
3. c1ccc2nc3c(cc2c1)Sc1ccc2cccnc2c1N3 [Compound 11]

1: 5.76; 2: 1.21; 3: 4.72

Here are 2 molecules. What values of LogPTLC were reported for them?
1. Clc1ccc(C(c2ccc(Cl)cc2)C(Cl)(Cl)Cl)cc1 [Standard V, p,p’-DDT, reference compound]
2. C#CCN1c2ccc3ncccc3c2Sc2cc3ccccc3nc21 [Compound 8]

1. 6.24
2. 5.34

Provide the reported LogPTLC of each entry below, same order.
1. c1ccc2nc3c(cc2c1)Sc1c(ccc2ccccc12)N3 [Compound 14]
2. CN1c2nc3ccccc3cc2Sc2ccc3ccccc3c21 [Compound 19]

1: 5.69; 2: 5.58

====

assay: RP-TLC determination of lipophilicity (RM0, logPTLC); conditions: RP-18 plate, acetone/TRIS buffer pH 7.4, extrapolated to zero acetone
measured.endpoint: RM0
Answers are plain numbers.

Worked set:
> print(dat)
                                   molecule  recorded.number
1  CC(=O)Nc1ccccc1 [Standard I, acetanilide, reference compound]             0.78
2  C=CCN1c2ccc3ncccc3c2Sc2cc3ccccc3nc21 [Compound 7]             4.46

Pending molecule:
Would you kindly share the measured RM0 for CN1c2ccc3ccccc3c2Sc2cc3ccccc3nc21 [Compound 15] ?
4.49

====

Answer each item with its documented b (slope).
experiment: RP-TLC determination of lipophilicity (RM0, logPTLC); conditions: slope of RM = RM0 + b·C, acetone/TRIS buffer pH 7.4
One number for each entry.

> print(dat)
                                   compound  recorded.number
1  CN1c2nc3ccccc3cc2Sc2ccc3ccccc3c21 [Compound 19]          −0.0538
2  C#CCN1c2nc3ccccc3cc2Sc2ccc3ccccc3c21 [Compound 21]          −0.0507
3  CN1c2ccc3ncccc3c2Sc2cc3ccccc3nc21 [Compound 6]          −0.0582

Could you now consider this next compound?
// lookup b (slope) for CN1c2nc3ccccc3cc2Sc2ccc3cccnc3c21 [Compound 12]
−0.0576

====

Exercise: for every item that follows, state its recorded RM0.
test: RP-TLC determination of lipophilicity (RM0, logPTLC); conditions: RP-18 plate, acetone/TRIS buffer pH 7.4, extrapolated to zero acetone;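 note: silica gel 60 RP-18 F254S plates, TRIS buffer of ionic strength 0.2 M, detection under UV at 254 nm, RF averaged over three or more runs, C in % v/v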
Answers are plain numbers.

Would you please look over these solved cases?
> print(dat)
                                   compound  recorded.number
1  C=CCN1c2cnc3ccccc3c2Sc2cc3ccccc3nc21 [Compound 3]             4.30
2  CN1c2nc3ccccc3cc2Sc2ccc3cccnc3c21 [Compound 12]             4.21
3  c1ccc2nc3c(cc2c1)Sc1c(cnc2ccccc12)N3 [Compound 1, 7H-diquino[3,2-b;3′,4′-e]thiazine]             3.15
4  c1ccc2nc3c(cc2c1)Sc1ccc2ncccc2c1N3 [Compound 9]             3.69
5  c1ccc2nc3c(cc2c1)Sc1c(ccc2ncccc12)N3 [Compound 5]             3.72

Please give RM0 for each item listed below.
1. CN1c2nc3ccccc3cc2Sc2ccc3ccccc3c21 [Compound 19]
2. C#CCN1c2cnc3ccccc3c2Sc2cc3ccccc3nc21 [Compound 4]

1: 4.18; 2: 3.35
